- TESTED TARGET: HLA-A*02:03
- MEASUREMENT PROTOCOL: IEDB peptide-MHC binding, purified MHC/competitive/radioactivity; bounds were set here for any values at or beyond the usual limits of such assays
- ASSAY CONDITIONS: source organism: Vaccinia virus WR
pIC50: −log10 of the molar value.
TEST READOUT: pIC50

sequence_string=TLISSDGARV numeric_value=6.88
sequence_string=YTKHSMLTNA numeric_value=6.85
sequence_string=SAFNDDGIYI numeric_value=7.17
sequence_string=LLKCVSDSWL numeric_value=6.93
sequence_string=ETLPELNLSL numeric_value=6.89
sequence_string=IASILSLETV numeric_value=7.03

----------
- TESTED TARGET: HLA-A*02:06
- MEASUREMENT PROTOCOL: IEDB peptide-MHC binding, cellular MHC/competitive/fluorescence; bounds were set here for any values at or beyond the usual limits of such assays
- ASSAY CONDITIONS: source organism: Vaccinia virus WR
pIC50: −log10 of the molar value.
Below, each entry is listed with its recorded pIC50.
TEST READOUT: pIC50

sequence_string=EIDVSEVKT test_readout=pIC50 limit_sign=≤ numeric_value=4.15
sequence_string=VMDKNHAIFT test_readout=pIC50 limit_sign=≤ numeric_value=4.15
sequence_string=DLNAVTTNNL test_readout=pIC50 limit_sign== numeric_value=5.12
sequence_string=ETIQKDINI test_readout=pIC50 limit_sign== numeric_value=4.46
sequence_string=IAVFDSKLI test_readout=pIC50 limit_sign== numeric_value=4.92
sequence_string=DVQRTRCKYV test_readout=pIC50 limit_sign== numeric_value=5.02
sequence_string=TIESAKTKI test_readout=pIC50 limit_sign== numeric_value=4.29
sequence_string=CLEAKTHFST test_readout=pIC50 limit_sign=≤ numeric_value=4.15
sequence_string=SLKRFTHTTA test_readout=pIC50 limit_sign== numeric_value=5.14
sequence_string=LLEMKYALI test_readout=pIC50 limit_sign== numeric_value=4.83
sequence_string=VASDVCKKNL test_readout=pIC50 limit_sign=≤ numeric_value=4.15
sequence_string=NVSRVVECLT test_readout=pIC50 limit_sign== numeric_value=5.00

----------
- TESTED TARGET: HLA-A*01:01
- MEASUREMENT PROTOCOL: IEDB peptide-MHC binding, cellular MHC/competitive/fluorescence; bounds were set here for any values at or beyond the usual limits of such assays
- ASSAY CONDITIONS: source organism: Vaccinia virus WR
TEST READOUT: IC50 (µM)

sequence_string=LQDIVNEHDI limit_sign=≥ numeric_value=70
sequence_string=RQVSVKLLI limit_sign== numeric_value=23.8
sequence_string=LQQNNSFII limit_sign== numeric_value=40.2
sequence_string=CQCTVQEFI limit_sign== numeric_value=28.5

----------
Below, each entry is listed with its recorded IC50.
- TESTED TARGET: HLA-A*02:02
- MEASUREMENT PROTOCOL: IEDB peptide-MHC binding, purified MHC/competitive/radioactivity; bounds were set here for any values at or beyond the usual limits of such assays
- ASSAY CONDITIONS: source organism: Vaccinia virus WR
TEST READOUT: IC50 (nM)

sequence_string=IMSIGFEARI numeric_value=703
sequence_string=ILDNAAKYV numeric_value=126
sequence_string=KIDKLTFQI numeric_value=141
sequence_string=FVMCLEAKT numeric_value=609
sequence_string=KVTGSYNLV numeric_value=66
sequence_string=RLQMAGVEV numeric_value=326
sequence_string=NVSGVPHSV numeric_value=825
sequence_string=DQDTMLFASA numeric_value=891
sequence_string=GLTTHCTKL numeric_value=100
sequence_string=TTLLNETAKV numeric_value=1640
sequence_string=LALKNSQAEL numeric_value=741
sequence_string=LLPLTSLVI numeric_value=2390
sequence_string=SIISLFYTFA numeric_value=111
sequence_string=KLFTHDIML numeric_value=1
sequence_string=RTMPNESRV numeric_value=140
sequence_string=RLRQDTEDI numeric_value=230

----------
- TESTED TARGET: HLA-A*02:03
- MEASUREMENT PROTOCOL: IEDB peptide-MHC binding, purified MHC/competitive/radioactivity; bounds were set here for any values at or beyond the usual limits of such assays
- ASSAY CONDITIONS: source organism: Vaccinia virus WR
Please note: IC50 exactly at 600 nM is No. Only values below 600 nM get Yes.

sequence_string=GLCNYGGIL tested_target=HLA-A*02:03 label_class=Yes
sequence_string=GVMYAFTTPL tested_target=HLA-A*02:03 label_class=Yes
sequence_string=ITDNGPMPYM tested_target=HLA-A*02:03 label_class=No
sequence_string=ALTDVEKRIL tested_target=HLA-A*02:03 label_class=Yes
sequence_string=TIAVSVYGA tested_target=HLA-A*02:03 label_class=Yes
sequence_string=STFNMWREI tested_target=HLA-A*02:03 label_class=No
sequence_string=MVDVSMMSM tested_target=HLA-A*02:03 label_class=No
sequence_string=VLEKKVCAI tested_target=HLA-A*02:03 label_class=No
sequence_string=GMSIVCIVA tested_target=HLA-A*02:03 label_class=No

----------
- TESTED TARGET: HLA-A*02:03
- MEASUREMENT PROTOCOL: IEDB peptide-MHC binding, purified MHC/competitive/radioactivity; bounds were set here for any values at or beyond the usual limits of such assays
- ASSAY CONDITIONS: source organism: Vaccinia virus WR
Please note: IC50 exactly at 300 nM is FALSE. Only values below 300 nM get TRUE.

sequence_string=RQVSVKLLI tested_target=HLA-A*02:03 label_class=TRUE
sequence_string=RVKQWVMDT tested_target=HLA-A*02:03 label_class=TRUE
sequence_string=YQSFLFWFL tested_target=HLA-A*02:03 label_class=TRUE
sequence_string=AAAATCALV tested_target=HLA-A*02:03 label_class=TRUE
sequence_string=RAFIYSIMET tested_target=HLA-A*02:03 label_class=TRUE
sequence_string=TINVNSLAL tested_target=HLA-A*02:03 label_class=FALSE
sequence_string=NLVQYRILPM tested_target=HLA-A*02:03 label_class=FALSE
sequence_string=KILSDENYL tested_target=HLA-A*02:03 label_class=FALSE
sequence_string=VIRHVDGKI tested_target=HLA-A*02:03 label_class=FALSE
sequence_string=DLNAVTTNNL tested_target=HLA-A*02:03 label_class=FALSE
sequence_string=DIRDKYMEL tested_target=HLA-A*02:03 label_class=FALSE
sequence_string=SIAMLKSKNI tested_target=HLA-A*02:03 label_class=TRUE
sequence_string=ALLSCIRNA tested_target=HLA-A*02:03 label_class=TRUE
sequence_string=TIVSRSSRGV tested_target=HLA-A*02:03 label_class=TRUE
sequence_string=QILDNAAKYV tested_target=HLA-A*02:03 label_class=FALSE
sequence_string=MIGNYFSGVL tested_target=HLA-A*02:03 label_class=FALSE
sequence_string=VTFINDYANL tested_target=HLA-A*02:03 label_class=TRUE
sequence_string=TISGNIYSA tested_target=HLA-A*02:03 label_class=TRUE
sequence_string=FLPQIGGEAI tested_target=HLA-A*02:03 label_class=TRUE
sequence_string=DIMTSTRTI tested_target=HLA-A*02:03 label_class=TRUE
sequence_string=MQKFTILEYL tested_target=HLA-A*02:03 label_class=TRUE
sequence_string=NASKFVYVSV tested_target=HLA-A*02:03 label_class=TRUE
sequence_string=AAIDRQVSV tested_target=HLA-A*02:03 label_class=TRUE
sequence_string=TISGNIYSAL tested_target=HLA-A*02:03 label_class=TRUE
sequence_string=YVGDTSMMVI tested_target=HLA-A*02:03 label_class=TRUE
sequence_string=IIGEPIIVA tested_target=HLA-A*02:03 label_class=FALSE
sequence_string=SVKNLILNFL tested_target=HLA-A*02:03 label_class=TRUE
sequence_string=IIMAINVFT tested_target=HLA-A*02:03 label_class=TRUE
sequence_string=NTISGNIYSA tested_target=HLA-A*02:03 label_class=FALSE
sequence_string=KLFKRERDA tested_target=HLA-A*02:03 label_class=FALSE
sequence_string=DTIAHINTL tested_target=HLA-A*02:03 label_class=TRUE
sequence_string=IINSVSIILA tested_target=HLA-A*02:03 label_class=FALSE
sequence_string=SMTSDSKSI tested_target=HLA-A*02:03 label_class=FALSE
sequence_string=QVLQQNNSFI tested_target=HLA-A*02:03 label_class=FALSE
sequence_string=ALCKVTVPT tested_target=HLA-A*02:03 label_class=TRUE
sequence_string=IQKDINITHT tested_target=HLA-A*02:03 label_class=FALSE
sequence_string=DLNIFMTLV tested_target=HLA-A*02:03 label_class=FALSE
sequence_string=KIYTLIYRQL tested_target=HLA-A*02:03 label_class=FALSE
